assay: gradient 5% acetonitrile 3 min, to 50% in 2 min, to 85% in 15 min, held 3 min, 100 µL/min; conditions: column: Zorbax Extend-C18 2.1 x 50 mm; eluents: water / acetonitrile, 0.1% formic acid
The following compounds are shown together with reported RP-LC retention time values.

{"compound": "COc1ccc(-c2cc(C(=O)Nc3cc(C)ccc3C)nn2C2CCS(=O)(=O)C2)cc1 (stereo unspecified)", "readoutLabel": "RP-LC retention time", "result": "982 s"}
{"compound": "CCc1cc(C(=O)N2CCCC2)nc2cc(-c3cccs3)nn12", "readoutLabel": "RP-LC retention time", "result": "655 s"}

Okay, now this compound:
What value of RP-LC retention time has been recorded for this entry: Cc1ccc(NC(=O)C(C)Oc2cc(C(F)(F)F)c3c(C)nn(C)c3n2)cc1C (stereo unspecified) 586 s

----------
assay: gradient 5% acetonitrile 3 min, to 50% in 2 min, to 85% in 15 min, held 3 min, 100 µL/min; details: column: Zorbax Extend-C18 2.1 x 50 mm; eluents: water / acetonitrile, 0.1% formic acid
readoutLabel: RP-LC retention time (s)
Numbers only; they are read as s.

Study these solved cases before continuing.
{"molecule": "CCc1ccc(CNC(=O)Cn2ccc3ccc(N4CCOCC4)nc32)cc1", "RP-LC retention time (s)": 969}
{"molecule": "CCc1cc(C(=O)Nc2ccc(C)cc2F)nc2ccnn12", "RP-LC retention time (s)": 1140}
{"molecule": "N#Cc1cccc(NC(=O)Cc2csc3nc(-c4ccccc4)cn23)c1", "RP-LC retention time (s)": 782}

What value of RP-LC retention time has been recorded for this entry: CCCC(=O)NC1CCN(c2ccc(C)cc2)C1=O (stereo unspecified) 714

What value of RP-LC retention time has been recorded for this entry: `COc1cccc(CNC(=O)c2nc(N3CCOCC3)c3c(C)cc(C)nc3n2)c1` 625

What value of RP-LC retention time has been recorded for this entry: `COc1ccccc1CNc1nc2ccccc2nc1NS(=O)(=O)c1cccs1` 1050

----------
The following molecules are shown together with reported RP-LC retention time values.
experiment: gradient 5% acetonitrile 3 min, to 50% in 2 min, to 85% in 15 min, held 3 min, 100 µL/min; settings: column: Zorbax Extend-C18 2.1 x 50 mm; eluents: water / acetonitrile, 0.1% formic acid
Numbers only; they are read as s.

{"molecule": "CC(C)NC(=O)c1cn2c(n1)CCCC2", "resultUnit": "s", "resultNumber": 545}
{"molecule": "Cc1ccc(NC(=O)C2CCCN(c3ccc4cc(S(=O)(=O)N5CCCCC5)ccc4n3)C2)cc1 (stereo unspecified)", "resultUnit": "s", "resultNumber": 917}
{"molecule": "Cc1ccc2c(Nc3ccc(C)c(C)c3)c(C(=O)N3CCCC(C)C3)cnc2n1 (stereo unspecified)", "resultUnit": "s", "resultNumber": 681}

What value of RP-LC retention time has been recorded for this entry: `CCn1cc(-c2nc(C)c(C(=O)Nc3ccccc3F)s2)c2cccnc21` 1000

What value of RP-LC retention time has been recorded for this entry: `CCCn1cc(CCNC(=O)c2cc(Cl)ccc2F)c2cccnc21` 852

----------
experiment: gradient 5% acetonitrile 3 min, to 50% in 2 min, to 85% in 15 min, held 3 min, 100 µL/min; conditions: column: Zorbax Extend-C18 2.1 x 50 mm; eluents: water / acetonitrile, 0.1% formic acid
Label scheme for RP-LC retention time: lower than 800 s is Not met, 800 s and above is Met.

Would you please look over these solved cases?
{"molecule": "CC1=C(c2ccc(C)c(C)c2)S(=O)(=O)N=C1N1CCCN(C(=O)NCC(C)C)CC1", "className": "Met"}
{"molecule": "Cc1ccc(CNC(=O)Nc2ccc3nnc(C)n3c2)cc1", "className": "Not met"}
{"molecule": "CCOc1ccc2c(n1)CCN(C(=O)Nc1ccc(C)cc1C)C2", "className": "Met"}
{"molecule": "Cc1nn2c(CNS(=O)(=O)c3ccc(Cl)cc3C)c(-c3ccccc3)nc2s1", "className": "Met"}

Identify whether the reported RP-LC retention time of the following molecule is 800 s or greater: O=C(c1ccc(OCC2CCCN2C(=O)COc2ccc(F)cc2)cc1)N1CCCC1 (centres undefined) Not met

Identify whether the reported RP-LC retention time of the following molecule is 800 s or greater: CC(C)c1cccc(NC(=O)C2CCCN(c3cn[nH]c(=O)c3)C2)c1 (centres undefined) Not met

Identify whether the reported RP-LC retention time of the following molecule is 800 s or greater: `CC[C@H](Nc1ncnc2nc[nH]c12)c1nc2cccc(F)c2c(=O)n1-c1ccccc1` Not met

Identify whether the reported RP-LC retention time of the following molecule is 800 s or greater: `Cn1cc(S(=O)(=O)N2CCC(C(=O)Nc3ccc(F)cc3)CC2)cc1C(=O)N1CCCC1` Not met
